Tested on: HIV-1 IIIB
Conditions: read-out: EC50 (μM) (M ± SD) for inhibition of p24; HIV-1 IIIB, MT-2 cells
Give measured EC50 for each item. Keep answers brief.

Given item Cc1ccc(NC(=O)CN2C(=O)S/C(=C\c3ccc(-c4cccc(C(=O)O)c4C)o3)C2=O)cc1 , the value recorded as its EC50 is > 100 µM

The recorded EC50 for O=C(O)c1cc(-c2ccc(/C=C3\SC(=O)N(c4ccc(Cl)cc4)C3=O)o2)ccc1Cl is 12.1 µM

EC50 reported for this compound CCN1C(=O)/C(=C/c2ccc(-c3ccc(Cl)c(C(=O)O)c3)o2)SC1=S : 0.943 µM

// recorded EC50 for O=C(O)c1cc(-c2ccc(/C=C3\SC(=S)N(CCc4ccccc4)C3=O)o2)ccc1Cl : 0.019 µM

EC50 recorded for this compound, O=C(O)c1cc(-c2ccc(/C=C3\SC(=O)N(CC(=O)N4CCOCC4)C3=O)o2)ccc1Cl , is > 100 µM

In plain terms, COC(=O)c1ccccc1N1C(=O)/C(=C/c2ccc(-c3ccc(Cl)c(C(=O)O)c3)o2)SC1=S has a documented EC50 of 2.12 µM

Reported EC50 of Cc1ccc(N2C(=O)/C(=C/c3ccc(-c4cccc(C(=O)O)c4)o3)SC2=S)cc1 : 0.332 µM

EC50 recorded for this compound, O=C(O)c1cc(-c2ccc(/C=C3\SC(=S)N(Cc4ccccc4)C3=O)o2)ccc1Cl , is 0.767 µM
